- measurement target: UniProt P29597
- method notes: TYK2 degradation MSD assay in OCI-LY10 cells
- Assay type: cell-based
- Parameters: endogenous in cells; host or cells: EBV-B cells
- protocol conditions: 4 to 24 hours incubation, read-out: TYK2 MSD DC50 rating in OCI-LY10
Documented DC50 across a set of compounds

Recorded DC50, per entry:
CNc1cc(Nc2cccc(-c3ccc(CN4CCC(CCc5cccc6c5n(C)c(=O)n6C5CCC(=O)NC5=O)CC4)cn3)c2)nn2c(C(=O)N[C@@H]3C[C@@H]3F)cnc12 (stereo partly shown) [Example K507]
< 1 nM
CNC(=O)c1cnc(Nc2ccc(CN3CCC(N(C)c4cccc5c4n(C)c(=O)n5C4CCC(=O)NC4=O)C3)cn2)cc1Nc1cccc(-c2ncc(F)cn2)c1OC (stereo not shown) [Example K705]
> 100 nM
Cn1c(=O)n(C2CCC(=O)NC2=O)c2ccc(CCCCNc3cc(Nc4cccn(-c5ccccn5)c4=O)nn4c(C(=O)N[C@@H]5C[C@@H]5F)cnc34)cc21 (stereo partly shown) [Example K204]
> 100 nM

Report measured DC50; entry is CNc1cc(Nc2cccc(-c3ccc(CN4CCC(N5CCN(c6ccc7c(c6)n(C)c(=O)n7C6CCC(=O)NC6=O)CC5)C(F)(F)C4)cn3)c2OC)nn2c(C(=O)NC3CC3F)cnc12 (stereo not shown) [Example K660] < 1 nM

Report measured DC50; entry is CNC(=O)c1cnc(Nc2ccc(CN3CCC(c4cccc5c4n(C)c(=O)n5C4CCC(=O)NC4=O)C3)cn2)cc1Nc1cccc(-c2ncc(F)cn2)c1OC (stereo not shown) [Example K165] > 100 nM

Report measured DC50; entry is CNc1cc(Nc2cccn(C3CCN(C(=O)NCCCCc4ccc5c(c4)n(C)c(=O)n5C4CCC(=O)NC4=O)CC3)c2=O)nn2c(C(=O)N[C@@H]3C[C@@H]3F)cnc12 (stereo partly shown) [Example K277] > 100 nM

Report measured DC50; entry is CNc1cc(Nc2cccc(CN3CCC34CN(c3ncc(C#Cc5ccc6c(c5)n(C)c(=O)n6C5CCC(=O)NC5=O)cn3)C4)c2)nn2c(C(=O)NC3CC3)cnc12 (stereo not shown) [Example K580] > 100 nM

Report measured DC50; entry is CNc1cc(Nc2cccn(-c3ccc(C(=O)N4CCC(OC5CC(c6cccc7c6n(C)c(=O)n7C6CCC(=O)NC6=O)C5)CC4)cn3)c2=O)nn2c(C(=O)N[C@@H]3C[C@@H]3F)cnc12 (stereo partly shown) [Example K442] < 1 nM

Report measured DC50; entry is CNc1cc(-c2cnn(C3CN(C(=O)NCCCCCCc4cccc5c4n(C)c(=O)n5C4CCC(=O)NC4=O)C3)c2)nn2c(C(=O)N[C@@H]3C[C@@H]3F)cnc12 (stereo partly shown) [Example K317] > 100 nM

Report measured DC50; entry is CNc1cc(-c2cnn(C3CN(C(=O)NCCCCCCCCc4ccc5c(c4)n(C)c(=O)n5C4CCC(=O)NC4=O)C3)c2)nn2c(C(=O)NC3C[C@@H]3F)cnc12 (stereo partly shown) [Example K318] > 100 nM

====

- measurement target: TYK2 (Homo sapiens)
- method notes: TYK2 degradation MSD assay in EBV-B cells
- Type: cell-based
- Design: endogenous in cells; host or cells: EBV-B cells
- protocol conditions: 4 to 24 hours incubation, read-out: TYK2 MSD DC50 rating in EBV-B
quantity: DC50

Cn1c(=O)n(C2CCC(=O)NC2=O)c2ccc(CCCCCCCCCCNc3cc(Nc4cccn(-c5ccccn5)c4=O)nn4c(C(=O)N[C@@H]5C[C@@H]5F)cnc34)cc21 (stereo partly shown)
> 100 nM

Report measured DC50; entry is CNc1cc(Nc2cccn(-c3ccc(C(=O)N4CC5(C4)CN(c4ccc(-c6ccc7c(c6)n(C)c(=O)n7C6CCC(=O)NC6=O)cc4)C5)cn3)c2=O)nn2c(C(=O)N[C@@H]3C[C@@H]3F)cnc12 (stereo partly shown) < 1 nM

Report measured DC50; entry is CNc1cc(Nc2cccc(CN3CCN(C(=O)CCc4ccc(-c5ccc6c(c5)n(C)c(=O)n6C5CCC(=O)NC5=O)cc4)CC3)c2)nn2c(C(=O)NC3CC3)cnc12 (stereo not shown) > 100 nM

Report measured DC50; entry is CNc1cc(Nc2cccc(CN3CCC(c4cccc5c4n(C)c(=O)n5C4CCC(=O)NC4=O)CC3)c2)nn2c(C(=O)NC3CC3)cnc12 (stereo not shown) > 100 nM

====

Documented DC50 across a set of compounds
- measurement target: TYK2 (Homo sapiens, UniProt P29597)
- Sequence (P29597 whole entry): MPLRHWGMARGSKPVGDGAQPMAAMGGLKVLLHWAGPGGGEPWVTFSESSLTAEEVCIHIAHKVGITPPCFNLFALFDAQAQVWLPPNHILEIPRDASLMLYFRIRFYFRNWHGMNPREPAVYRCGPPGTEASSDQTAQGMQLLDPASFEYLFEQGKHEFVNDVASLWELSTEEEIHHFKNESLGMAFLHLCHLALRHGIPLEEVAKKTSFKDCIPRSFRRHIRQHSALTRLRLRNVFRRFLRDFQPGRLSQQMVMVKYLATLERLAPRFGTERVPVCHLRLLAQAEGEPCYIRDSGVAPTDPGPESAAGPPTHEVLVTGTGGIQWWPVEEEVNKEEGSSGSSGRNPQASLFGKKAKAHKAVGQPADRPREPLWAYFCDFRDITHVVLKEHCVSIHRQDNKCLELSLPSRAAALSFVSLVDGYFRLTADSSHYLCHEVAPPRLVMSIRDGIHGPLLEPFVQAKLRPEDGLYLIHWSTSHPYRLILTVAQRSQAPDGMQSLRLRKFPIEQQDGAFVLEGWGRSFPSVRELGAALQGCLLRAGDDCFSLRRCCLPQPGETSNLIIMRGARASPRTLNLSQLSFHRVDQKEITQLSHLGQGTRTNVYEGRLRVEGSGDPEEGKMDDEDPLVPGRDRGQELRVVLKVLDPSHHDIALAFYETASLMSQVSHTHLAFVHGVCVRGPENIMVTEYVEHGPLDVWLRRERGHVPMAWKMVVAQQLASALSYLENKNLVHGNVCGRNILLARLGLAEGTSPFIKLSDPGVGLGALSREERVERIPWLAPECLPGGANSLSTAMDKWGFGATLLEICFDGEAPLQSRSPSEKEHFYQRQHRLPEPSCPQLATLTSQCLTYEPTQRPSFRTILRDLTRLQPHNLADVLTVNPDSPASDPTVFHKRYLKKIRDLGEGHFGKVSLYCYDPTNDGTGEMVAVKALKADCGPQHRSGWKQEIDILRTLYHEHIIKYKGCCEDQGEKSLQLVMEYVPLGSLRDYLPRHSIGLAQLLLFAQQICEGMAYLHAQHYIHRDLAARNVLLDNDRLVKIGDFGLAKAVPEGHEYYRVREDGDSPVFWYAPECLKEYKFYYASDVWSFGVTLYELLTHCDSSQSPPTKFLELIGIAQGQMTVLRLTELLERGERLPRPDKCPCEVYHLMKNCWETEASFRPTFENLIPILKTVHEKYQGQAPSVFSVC
- method notes: TYK2 degradation MSD assay in EBV-B cells
- Type: cell-based
- Design: endogenous in cells; host or cells: EBV-B cells
- protocol conditions: 4 to 24 hours incubation, read-out: TYK2 MSD DC50 rating in EBV-B

CNc1cc(Nc2cccn(-c3cccc(C(=O)NCCCCc4ccc5c(c4)n(C)c(=O)n5C4CCC(=O)NC4=O)c3)c2=O)nn2c(C(=O)N[C@@H]3C[C@@H]3F)cnc12 (some centres unmarked) [Example K227]
> 100 nM
CNc1cc(Nc2cccc(CN3CCC(OC4CC(c5ccc6c(c5)n(C)c(=O)n6C5CCC(=O)NC5=O)C4)CC3)c2)nn2c(C(=O)NC3CC3)cnc12 (centres unmarked)
> 100 nM
CNc1cc(N2CCc3c(-c4ccc(CN5CCC6(CC5)CCN(c5ccc(-c7ccc8c(c7)n(C)c(=O)n8C7CCC(=O)NC7=O)cc5)CC6)cn4)cccc32)nn2c(C(=O)N[C@@H]3C[C@@H]3F)cnc12 (some centres unmarked)
> 100 nM

Report measured DC50; entry is CNc1cc(Nc2cccc(CN3CCC4(CCN(c5ccc(-c6ccc7c(c6)n(C)c(=O)n7C6CCC(=O)NC6=O)cc5)C4)C3)c2)nn2c(C(=O)NC3CC3)cnc12 (centres unmarked) > 100 nM

Report measured DC50; entry is CNc1cc(N2CCc3c(-c4ccc(C(=O)N5CCN([C@H]6CC[C@H](c7ccc(-c8ccc9c(c8)n(C)c(=O)n9C8CCC(=O)NC8=O)cc7)CC6)CC5)cn4)cccc32)nn2c(C(=O)N[C@@H]3C[C@@H]3F)cnc12 (some centres unmarked) > 100 nM

Report measured DC50; entry is CNC(=O)c1cnc(Nc2ccc(C3CN(Cc4ccc5c(c4)n(C)c(=O)n5C4CCC(=O)NC4=O)C3)cn2)cc1Nc1cccc(-c2ncc(F)cn2)c1OC (centres unmarked) 1 to 10 nM

Report measured DC50; entry is CNc1cc(Nc2cccn(-c3ccc(C(=O)N4CCN(c5ccc(-c6ccc7c(c6)n(C)c(=O)n7C6CCC(=O)NC6=O)cn5)C(=O)C4)cn3)c2=O)nn2c(C(=O)N[C@@H]3C[C@@H]3F)cnc12 (some centres unmarked) < 1 nM

Report measured DC50; entry is CNc1cc(Nc2cccc(CN3CCN(c4ccc(-c5ccc6c(c5)n(C)c(=O)n6C5CCC(=O)NC5=O)cc4)CC3)c2OC)nn2c(C(=O)N[C@@H]3C[C@@H]3F)cnc12 (some centres unmarked) > 100 nM

Report measured DC50; entry is CNc1cc(Nc2cccc(C(=O)NCCCCc3ccc4c(c3)n(C)c(=O)n4C3CCC(=O)NC3=O)c2)nn2c(C(=O)N[C@@H]3C[C@@H]3F)cnc12 (some centres unmarked) [Example K247] > 100 nM

Report measured DC50; entry is CNc1cc(Nc2cccn(C3CCN(C(=O)NCCCCc4cccc5c4n(C)c(=O)n5C4CCC(=O)NC4=O)CC3)c2=O)nn2c(C(=O)N[C@@H]3C[C@@H]3F)cnc12 (some centres unmarked) > 100 nM

Report measured DC50; entry is CNc1cc(-c2ccc(CN3CCN(c4ccc(-c5ccc6c(c5)n(C)c(=O)n6C5CCC(=O)NC5=O)cc4)CC3)cc2)nn2c(C(=O)N[C@@H]3C[C@@H]3F)cnc12 (some centres unmarked) > 100 nM

====

- measurement target: TYK2 (Homo sapiens)
- method notes: TYK2 degradation MSD assay in human PBMC cells
- Type: cell-based
- Parameters: endogenous in cells; host or cells: human PBMC
- protocol conditions: 4 to 24 hours incubation, read-out: TYK2 MSD DC50 rating in human PBMC
Documented DC50 across a set of compounds

CNc1cc(Nc2cccc(-c3ccc(CN4CCN([C@H]5CC[C@@H](c6ccc7c(c6)n(C)c(=O)n7C6CCC(=O)NC6=O)CC5)CC4)cn3)c2OC)nn2c(C(=O)N[C@@H]3C[C@@H]3F)cnc12 (mixture of isomers)
> 100 nM

Report measured DC50; entry is CNC(=O)c1cnc(Nc2ccc(CN3CC(N(C)c4ccc5c(c4)n(C)c(=O)n5C4CCC(=O)NC4=O)C3)cn2)cc1Nc1cccc(-c2ncc(F)cn2)c1OC (centres unmarked) > 100 nM

Report measured DC50; entry is CNC(=O)c1cnc(Nc2ccc(CN3CCCC4(C3)CN(c3ncc(C#Cc5ccc6c(c5)n(C)c(=O)n6C5CCC(=O)NC5=O)cn3)C4)cn2)cc1Nc1cccc(-c2ncc(F)cn2)c1OC (centres unmarked) 1 to 10 nM

Report measured DC50; entry is CNc1cc(-c2cnn(C3CN(C(=O)NCCCCCCc4cccc5c4n(C)c(=O)n5C4CCC(=O)NC4=O)C3)c2)nn2c(C(=O)N[C@@H]3C[C@@H]3F)cnc12 (some centres unmarked) > 100 nM

Report measured DC50; entry is CNC(=O)c1cnc(Nc2ccc(C3CN(Cc4ccc5c(c4)n(C)c(=O)n5C4CCC(=O)NC4=O)C3)cn2)cc1Nc1cccc(-c2ncc(F)cn2)c1OC (centres unmarked) > 100 nM

The reported measurements were obtained from patent US20250051338A1.
